Test system: OVCAR-3 ovarian
Method: NCI-60 one-dose screen, 48 h (100 = growth as untreated, 0 = no growth, -100 = all killed)
Condition notes: 10 µM unless noted
Description: Growth inhibition of the OVCAR-3 human tumor cell line is measured as a screen for anti-cancer activity. Cells are grown in 96 well plates and exposed to the test compound for 48 hours. Compounds are tested at a single concentration, which is 10^-5 M for most compounds. The reported endpoint is percent growth (GI% or GIPRCNT), where numbers from 0 - 100% represent growth inhibition, and numbers from -100% - 0 represent cell death. For example, a value of 40 represents 60% growth inhibition. […]
The panel holds about 83,000 compounds, 20% with a hit somewhere; the sample as a whole holds those more often.
Overview of recorded growth for various molecules
The reply should contain only the number, in %.

Q: Field: growth (OVCAR-3 ovarian). Entry: "Clc1cccc(/C=N/Nc2nc(N/N=C/c3cccc(Cl)c3)nc(N3CCCCC3)n2)c1"
A: 91.4

Q: Field: growth (OVCAR-3 ovarian). Entry: "CCN(CC)CCOc1ccc(C(=C(c2ccccc2)C2CCCC2)c2ccc(OCCN(CC)CC)cc2)cc1"
A: 16.9

Q: Field: growth (OVCAR-3 ovarian). Entry: "Cc1ccc2c(n1)C(=O)C(Cl)=C(Nc1cccc(C(F)(F)F)c1)C2=O"
A: -86.3

Q: Field: growth (OVCAR-3 ovarian). Entry: "O=S(=O)(NCCCNc1nccc(-c2[nH]c(-c3ccccc3)nc2-c2ccc(F)c(O)c2)n1)c1ccccc1"
A: 138

Q: Field: growth (OVCAR-3 ovarian). Entry: "COc1ccc2[nH]cc(-c3nc(N)nnc3-c3cn(C)c4ccc(Br)cc34)c2c1"
A: -8.84

Q: Field: growth (OVCAR-3 ovarian). Entry: CCOC(=O)C1=C(C)NC(C)=C(C(=O)OC(C)C)C1c1cccc(C#N)c1 (stereo unspecified)
A: 105
